These data points were gathered from the supplement of paper PMC6555819.

# Tested on: LXRa homodimer (NR concentration 270 nM)
# Measurement description: PBM binding z-score (relative to random genomic background probes); higher = stronger binding; sequences stand for … in GC…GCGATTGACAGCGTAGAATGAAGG
Entry class follows PBM binding z-score: I (below -0.09), II (-0.09 to below 0.8), III (0.8 or more)

Sequence data | Class name
CCTACTGGGCCATCAGGTCATGGATATCAACGTT | II
TCGAGTAGGTTACCAATGGGGGATTCAGCTTTCT | I

Ask: Categorize the following entry: CGTCCAAGGTCAAGGTCATTGAAAGAGACTCGAA
Result: III

Ask: Bin? CCTGGGAGGACAGAAGGTCAGAGCTGTCCGCTTT
Result: II

Ask: Textbook exercise: identify the category of the sequence given here, ATCGCAAGGTCGAAGGTGAGTATACCCACCCGAA , according to its measured value.
Result: I

Ask: Consider CCTACTGGGCCATCAGGTCATTGAAATCAACGTT . To which PBM binding z-score class does it belong?
Result: III

Ask: Hi there! Could you help me figure out the category for CGTCAAAGTTCAACTAGGGTAACGTAAAGCACGC please?
Result: III

Ask: Exercise: read the entry TCTTGTAGATCAAGCAGGTTAAGCAAGCCTGAGT and state which class it falls under.
Result: I

Ask: Which class holds ACTATTAGTTGACTTAGGGCAACCCATACGACGC ?
Result: II

Ask: Which PBM binding z-score category applies to GCTACTAGGTCAGGTTGGTCAGCTAACGGGTACG here?
Result: II

Ask: Given CGGACTAGGTCAAGGACAGTGAATCTCCGCACGC , name the class its PBM binding z-score places it in.
Result: I
